Entry source: patent US10738028B2

System: methicillin-sensitive Staphylococcus epidermidis (MSSE)
run description: MIC, two-fold agar dilution (CLSI), clinical isolates
Format: cell-based
experimental setup: strain MSSE 15-5
Text: 1. The invention adopts the two-fold agar dilution method recommended by the operating procedure of antimicrobial susceptibility testing set by American Clinical and Laboratory Standards Institute (CLSI) to determine the Minimum Inhibitory Concentration (MIC) of the test samples against the tested strains.
MIC (anti-bacterial activity) by entry:
measurement name: MIC (anti-bacterial activity) (µg/mL)

compound: CCCC[C@H](CN(O)C=O)C(=O)N1CC2(CC2)C[C@H]1c1nc2ccccc2n1CCN(C)C [Example 24]
value measured: 2
--
compound: Cc1csc(NC(=O)[C@@H]2CC3(CC3)CN2C(=O)[C@H](CC2CCCC2)CN(O)C=O)n1 [Example 33]
value measured: 0.125
--
compound: Cc1cc(NC(=O)[C@@H]2CC3(CC3)CN2C(=O)[C@H](CC2CCCC2)CN(O)C=O)no1 [Example 39]
value measured: 1
--
compound: Cc1cnc(NC(=O)[C@@H]2CC3(CC3)CN2C(=O)[C@H](CC2CCCC2)CN(O)C=O)s1 [Example 29]
value measured: 0.125
--
compound: CCCC[C@H](CN(O)C=O)C(=O)N1CC2(CC2)C[C@H]1C(=O)Nc1nncs1 [Example 23]
value measured: 0.25
--
compound: O=CN(O)C[C@@H](CC1CCCC1)C(=O)N1CC2(CC2)C[C@H]1C(=O)N1CCS(=O)(=O)CC1 [Example 35]
value measured: 32
--
compound: O=CN(O)C[C@@H](CC1CCCC1)C(=O)N1CC2(CC2)C[C@H]1C(=O)Nc1ccno1 [Example 37]
value measured: 1
--
compound: CCCC[C@H](CN(O)C=O)C(=O)N1CC2(CC2)C[C@H]1C(=O)NC1CC1 [Example 18]
value measured: 2
--
compound: CCCC[C@H](CN(O)C=O)C(=O)N1CC2(CC2)C[C@H]1C(=O)Nc1nc(C)cs1 [Example 19]
value measured: 0.03
--
compound: O=CN(O)C[C@@H](CC1CCCC1)C(=O)N1CC2(CC2)C[C@H]1C(=O)Nc1cnccn1 [Example 26]
value measured: 0.5
--
compound: CCCC[C@H](CN(O)C=O)C(=O)N1CC2(CC2)C[C@H]1C(=O)Nc1ccno1 [Example 17]
value measured: 0.5
--
compound: CCCC[C@H](CN(O)C=O)C(=O)N1CC2(CC2)C[C@H]1C(=O)Nc1cnccn1 [Example 15]
value measured: 0.06
--
compound: CCCC[C@H](CN(O)C=O)C(=O)N1CC2(CC2)C[C@H]1C(=O)Nc1nccs1 [Example 22]
value measured: 0.03
--
compound: O=CN(O)C[C@@H](CC1CCCC1)C(=O)N1CC2(CC2)C[C@H]1C(=O)Nc1ncccc1F [Example 30]
value measured: 2
--
compound: O=CN(O)C[C@@H](CC1CCCC1)C(=O)N1CC2(CC2)C[C@H]1C(=O)Nc1ccc(N2CCOCC2)cc1 [Example 25]
value measured: 0.25
--
compound: O=CN(O)C[C@@H](CC1CCCC1)C(=O)N1CC2(CC2)C[C@H]1C(=O)Nc1ccc(F)cn1 [Example 28]
value measured: 0.125
--
compound: O=CN(O)C[C@@H](CC1CCCC1)C(=O)N1CC2(CC2)C[C@H]1C(=O)Nc1cc[nH]n1 [Example 31]
value measured: 2
--
compound: CCCC[C@H](CN(O)C=O)C(=O)N1CC2(CC2)C[C@H]1C(=O)Nc1ccncn1 [Example 16]
value measured: 0.06
--
compound: O=CN(O)C[C@@H](CC1CCCC1)C(=O)N1CC2(CC2)C[C@H]1C(=O)Nc1ccncn1 [Example 27]
value measured: 0.125
--
compound: COC(=O)c1sccc1NC(=O)[C@@H]1CC2(CC2)CN1C(=O)[C@H](CC1CCCC1)CN(O)C=O [Example 34]
value measured: 4
--
compound: CCCC[C@H](CN(O)C=O)C(=O)N1CC2(CC2)C[C@H]1C(=O)Nc1ccc(N2CCOCC2)cc1 [Example 14]
value measured: 0.25
--
compound: CC(C)(C)c1cc(NC(=O)[C@@H]2CC3(CC3)CN2C(=O)[C@H](CC2CCCC2)CN(O)C=O)no1 [Example 38]
value measured: 0.25
--
compound: CCCC[C@H](CN(O)C=O)C(=O)N1CC2(CC2)C[C@H]1C(=O)Nc1cc(C)on1 [Example 21]
value measured: 0.03
--
compound: O=CN(O)C[C@@H](CC1CCCC1)C(=O)N1CC2(CC2)C[C@H]1C(=O)NC1CC1 [Example 32]
value measured: 2
--
compound: O=CN(O)C[C@@H](CC1CCCC1)C(=O)N1CC2(CC2)C[C@H]1C(=O)Nc1ncco1 [Example 36]
value measured: 8

====

MIC (anti-bacterial activity) by entry:
System: methicillin-resistant Staphylococcus epidermidis (MRSE)
run description: MIC, two-fold agar dilution (CLSI), clinical isolates
Type: cell-based
experimental setup: strain MRSE 15-1

molecule: O=CN(O)C[C@@H](CC1CCCC1)C(=O)N1CC2(CC2)C[C@H]1C(=O)Nc1ncccc1F
test target: methicillin-resistant Staphylococcus epidermidis (MRSE)
quantity unit: µg/mL
MIC (anti-bacterial activity): 0.5
--
molecule: CCCC[C@H](CN(O)C=O)C(=O)N1CC2(CC2)C[C@H]1C(=O)Nc1nccs1
test target: methicillin-resistant Staphylococcus epidermidis (MRSE)
quantity unit: µg/mL
MIC (anti-bacterial activity): 0.03
--
molecule: CCCC[C@H](CN(O)C=O)C(=O)N1CC2(CC2)C[C@H]1C(=O)Nc1cnccn1
test target: methicillin-resistant Staphylococcus epidermidis (MRSE)
quantity unit: µg/mL
MIC (anti-bacterial activity): 0.125
--
molecule: O=CN(O)C[C@@H](CC1CCCC1)C(=O)N1CC2(CC2)C[C@H]1C(=O)Nc1cc[nH]n1
test target: methicillin-resistant Staphylococcus epidermidis (MRSE)
quantity unit: µg/mL
MIC (anti-bacterial activity): 0.5
--
molecule: CCCC[C@H](CN(O)C=O)C(=O)N1CC2(CC2)C[C@H]1C(=O)NC1CC1
test target: methicillin-resistant Staphylococcus epidermidis (MRSE)
quantity unit: µg/mL
MIC (anti-bacterial activity): 2
--
molecule: CCCC[C@H](CN(O)C=O)C(=O)N1CC2(CC2)C[C@H]1C(=O)Nc1cc(C)on1
test target: methicillin-resistant Staphylococcus epidermidis (MRSE)
quantity unit: µg/mL
MIC (anti-bacterial activity): 0.25
--
molecule: O=CN(O)C[C@@H](CC1CCCC1)C(=O)N1CC2(CC2)C[C@H]1C(=O)NC1CC1
test target: methicillin-resistant Staphylococcus epidermidis (MRSE)
quantity unit: µg/mL
MIC (anti-bacterial activity): 1
--
molecule: O=CN(O)C[C@@H](CC1CCCC1)C(=O)N1CC2(CC2)C[C@H]1C(=O)Nc1ccc(F)cn1
test target: methicillin-resistant Staphylococcus epidermidis (MRSE)
quantity unit: µg/mL
MIC (anti-bacterial activity): 0.125
--
molecule: O=CN(O)C[C@@H](CC1CCCC1)C(=O)N1CC2(CC2)C[C@H]1C(=O)Nc1ncco1
test target: methicillin-resistant Staphylococcus epidermidis (MRSE)
quantity unit: µg/mL
MIC (anti-bacterial activity): 4
--
molecule: O=CN(O)C[C@@H](CC1CCCC1)C(=O)N1CC2(CC2)C[C@H]1C(=O)Nc1ccc(N2CCOCC2)cc1
test target: methicillin-resistant Staphylococcus epidermidis (MRSE)
quantity unit: µg/mL
MIC (anti-bacterial activity): 0.06
--
molecule: CCCC[C@H](CN(O)C=O)C(=O)N1CC2(CC2)C[C@H]1C(=O)Nc1ccc(N2CCOCC2)cc1
test target: methicillin-resistant Staphylococcus epidermidis (MRSE)
quantity unit: µg/mL
MIC (anti-bacterial activity): 0.25
--
molecule: CCCC[C@H](CN(O)C=O)C(=O)N1CC2(CC2)C[C@H]1c1nc2ccccc2n1CCN(C)C
test target: methicillin-resistant Staphylococcus epidermidis (MRSE)
quantity unit: µg/mL
MIC (anti-bacterial activity): 8
--
molecule: O=CN(O)C[C@@H](CC1CCCC1)C(=O)N1CC2(CC2)C[C@H]1C(=O)Nc1cnccn1
test target: methicillin-resistant Staphylococcus epidermidis (MRSE)
quantity unit: µg/mL
MIC (anti-bacterial activity): 0.125
--
molecule: COC(=O)c1sccc1NC(=O)[C@@H]1CC2(CC2)CN1C(=O)[C@H](CC1CCCC1)CN(O)C=O
test target: methicillin-resistant Staphylococcus epidermidis (MRSE)
quantity unit: µg/mL
MIC (anti-bacterial activity): 0.25
--
molecule: Cc1csc(NC(=O)[C@@H]2CC3(CC3)CN2C(=O)[C@H](CC2CCCC2)CN(O)C=O)n1
test target: methicillin-resistant Staphylococcus epidermidis (MRSE)
quantity unit: µg/mL
MIC (anti-bacterial activity): 0.015
--
molecule: O=CN(O)C[C@@H](CC1CCCC1)C(=O)N1CC2(CC2)C[C@H]1C(=O)N1CCS(=O)(=O)CC1
test target: methicillin-resistant Staphylococcus epidermidis (MRSE)
quantity unit: µg/mL
MIC (anti-bacterial activity): 16
